test: Kinetic study in dogs (oral administration, plasma levodopa); conditions: dog, in vivo, po, 3 mg/kg
parameter: AUC (area under the blood concentration-time curve of levodopa) (μg^+ hr/mL)
Provide only the numeric value, understood in μg^+ hr/mL.

Could you share which AUC (area under the blood concentration-time curve of levodopa) value was measured for CC(C)C(CC(=O)Oc1ccc(C[C@H](N)C(=O)O)cc1OC(=O)CC(C(C)C)C(C)C)C(C)C.Cl [Reference Example 22] ?
0.28

Could you share which AUC (area under the blood concentration-time curve of levodopa) value was measured for CCC(C)(CC)CC(=O)Oc1ccc(C[C@H](N)C(=O)O)cc1OC(=O)CC(C)(CC)CC.Cl [Reference Example 21] ?
0.27

Could you share which AUC (area under the blood concentration-time curve of levodopa) value was measured for C[C@@H](OC(=O)c1ccccc1)C(=O)Oc1ccc(C[C@H](N)C(=O)O)cc1OC(=O)[C@@H](C)OC(=O)c1ccccc1.Cl [Reference Example 35] ?
0.77

Could you share which AUC (area under the blood concentration-time curve of levodopa) value was measured for C[C@H](OC(=O)c1ccccc1)C(=O)Oc1ccc(C[C@H](N)C(=O)O)cc1OC(=O)[C@H](C)OC(=O)c1ccccc1.Cl [Reference Example 34] ?
0.10

Could you share which AUC (area under the blood concentration-time curve of levodopa) value was measured for CCC(CC)(OC(=O)c1ccccc1)C(=O)Oc1ccc(C[C@H](N)C(=O)O)cc1OC(=O)C(CC)(CC)OC(=O)c1ccccc1.Cl [Reference Example 33] ?
0.003

Could you share which AUC (area under the blood concentration-time curve of levodopa) value was measured for CC(C)(C)CCC(=O)Oc1ccc(C[C@H](N)C(=O)O)cc1OC(=O)CCC(C)(C)C.Cl [Reference Example 19] ?
0.70

# credit: patent US8748485B2
